# TEST TARGET: T1, PSA(67-79)-G0F (human, also: Asn3 N-glycosylated with octasaccharide carrying alpha-1,6 core fucose (G0F))
# T1 construct: Synthetic glycopeptide (3.9 kDa as SPR analyte), made on Sieber Amide resin; For the ELISAs a biotinylated form was used (glutamic acid derivative with a PEG3-biotin side chain at the N-terminus); also called PSA(67-79)-GOF; glycopeptide of Formula Ib
# T1 peptide: IRN(G0F)KSVILLGRHS-NH2
# ASSAY PROCEDURE: SPR, Biacore 8k, 37 C, antibody captured by anti-rabbit Fc, peptide as analyte, Langmuir fit
pKd: −log10 of the molar value. Ends that are not written are not given here. * marks the point of attachment. G0F = octasaccharide N-glycan with alpha-1,6 core fucose (Formula Ib, linkages Formula Ic), CC(=O)N[C@@H]1[C@@H](O)[C@H](O[C@@H]2O[C@H](CO)[C@@H](O[C@@H]3O[C@H](CO[C@H]4O[C@H](CO)[C@@H](O)[C@H](O)[C@@H]4O[C@@H]4O[C@H](CO)[C@@H](O)[C@H](O)[C@H]4NC(C)=O)[C@@H](O)[C@H](O[C@H]4O[C@H](CO)[C@@H](O)[C@H](O)[C@@H]4O[C@@H]4O[C@H](CO)[C@@H](O)[C@H](O)[C@H]4NC(C)=O)[C@@H]3O)[C@H](O)[C@H]2NC(C)=O)[C@@H](CO[C@@H]2O[C@@H](C)[C@@H](O)[C@@H](O)[C@@H]2O)O[C@H]1*
Label y when pKd >= 9; otherwise n.

• 13C5 (antibody, V domains shown, Rabbit monoclonal IgG (150 kDa); also called anti-1,6fucPSA antibody 13C5) VH: QSLEESGGDLVKPGASLTLTCTASGFSFSSGYDMCWVRQAPGKGLEWIGCIYADGSGTTYYATWAKGRFTISNPSATTVTLQMTRLTAADTATYFCAREGADNPNYGYAALRLWGPGTLVTVSS VL: DIVMTQTPASVSGAVGGTITIKCQASQSISNYFSWYQQKPGQPPKLLIYKTSTLASGVPSRFKGSGSGTEFTLTISDLECADAATYYCQSFWGSGSSDYGGFAFGGGTEVVVK = y
• 2H9 (antibody, V domains shown, Rabbit monoclonal IgG (150 kDa); also called anti-1,6fucPSA antibody 2H9) VH: QSLEESGGDLVKPGASLTLTCTASGFSFSSGYDMCWVRQAPGKGPEWIACIYADGSGSTYYASWAKGRFTISMTSSTTVTLQMTRLTAADTATYFCAREGADDPNYGYAALRLWGPGTLVTVSS VL: DIVMTQTPASVEAAVGGTVTIKCQASQSISNYLAWYQQKPGQPPKLLIYKTSTLASGVPSRFKGSGSGTEFTLTISDLECADAATYYCQSFYGSVSSDYGGFAFGGGTEVVVK = n
• 3H6 (antibody, V domains shown, Rabbit monoclonal IgG (150 kDa); also called anti-1,6fucPSA antibody 3H6) VH: QSLEESGGDLVKPGASLTLTCTASGFSFSSGYDMCWVRQAPGKGLEWIACIYADGSGSTYYASWAKGRFTISKPSSTTVTLQMTRLTAADTATYFCAREGADGPDYGYAAFSLWGPGTLVTVSS VL: DIVMTQTPASVEAAVGGTVTIKCQASQTISSYFSWYQQKPGQPPKLLIYKASSLASGVPSRFKGSGSGTQFTLTISDLECADAATYYCQSFYGSVSSDVGGFAFGGGTEVVVK = n
• 3B10 (antibody, V domains shown, Rabbit monoclonal IgG (150 kDa); also called anti-1,6fucPSA antibody 3B10) VH: QSLEESGGGLVKPGGTLTLTCKASGFSFSSGYDMCWVRQAPGKGLEWIACIYADGSDNTYYASWAKGRFTISKTSSTTVTLQMTRLTAADTATYFCAREGADNPNYGYAALRLWGPGTLVTVSS VL: DIVMTQTPASVEAPVGGTVTIKCQATQSISSYLSWYQQKPGQPPKLLIYKTSTLASGVPSRFKGSGSGTEFTLTISDLECANAATYYCQSYYGSISSDYGGFAFGGGTEVVVK = n
